target: hKIF18A (1-374) (Homo sapiens (Human), UniProt Q8NI77); assay: Inhibition of KIF18A microtubule-dependent ATPase activity (ADP-Glo); settings: KIF18A microtubule-dependent ATPase activity, biochemical assay
Sequence (Q8NI77 whole entry, looked up): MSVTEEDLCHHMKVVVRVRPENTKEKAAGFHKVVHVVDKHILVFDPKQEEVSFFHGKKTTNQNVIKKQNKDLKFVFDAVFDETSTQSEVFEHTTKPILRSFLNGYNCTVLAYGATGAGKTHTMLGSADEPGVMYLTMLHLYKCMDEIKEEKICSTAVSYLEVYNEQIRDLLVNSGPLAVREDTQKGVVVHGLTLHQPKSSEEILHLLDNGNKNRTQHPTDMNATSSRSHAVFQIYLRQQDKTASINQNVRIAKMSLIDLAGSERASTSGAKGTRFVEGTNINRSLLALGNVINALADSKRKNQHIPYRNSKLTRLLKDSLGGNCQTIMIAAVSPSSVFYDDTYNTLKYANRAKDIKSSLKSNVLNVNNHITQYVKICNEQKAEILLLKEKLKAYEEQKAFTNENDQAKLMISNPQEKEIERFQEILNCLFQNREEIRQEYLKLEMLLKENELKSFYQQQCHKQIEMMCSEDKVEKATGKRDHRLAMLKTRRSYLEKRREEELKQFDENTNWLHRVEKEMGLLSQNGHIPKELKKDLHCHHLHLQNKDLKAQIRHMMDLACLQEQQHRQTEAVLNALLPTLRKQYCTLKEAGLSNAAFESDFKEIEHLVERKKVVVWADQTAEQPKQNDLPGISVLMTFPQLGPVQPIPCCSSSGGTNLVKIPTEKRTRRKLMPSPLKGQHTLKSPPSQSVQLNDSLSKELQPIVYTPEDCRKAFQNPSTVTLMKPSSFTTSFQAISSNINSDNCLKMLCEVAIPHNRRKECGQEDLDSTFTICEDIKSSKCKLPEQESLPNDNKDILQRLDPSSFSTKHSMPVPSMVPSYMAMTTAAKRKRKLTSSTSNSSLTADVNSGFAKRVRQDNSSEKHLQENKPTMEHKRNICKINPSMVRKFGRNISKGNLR
Sequence (Q2XVP4 whole entry partner, looked up): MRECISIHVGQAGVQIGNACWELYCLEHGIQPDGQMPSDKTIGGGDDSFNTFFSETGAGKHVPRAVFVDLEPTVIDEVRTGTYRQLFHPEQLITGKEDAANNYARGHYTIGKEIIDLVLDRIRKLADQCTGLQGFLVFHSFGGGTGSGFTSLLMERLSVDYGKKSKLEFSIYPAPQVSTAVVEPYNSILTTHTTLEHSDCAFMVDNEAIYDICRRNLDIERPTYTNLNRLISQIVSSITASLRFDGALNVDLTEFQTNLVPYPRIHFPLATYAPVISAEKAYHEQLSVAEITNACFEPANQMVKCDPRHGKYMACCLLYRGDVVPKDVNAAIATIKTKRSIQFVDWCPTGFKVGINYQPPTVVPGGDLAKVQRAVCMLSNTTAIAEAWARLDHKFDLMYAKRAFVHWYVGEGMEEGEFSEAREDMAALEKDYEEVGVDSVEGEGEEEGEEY
Sequence (P02554 whole entry partner, looked up): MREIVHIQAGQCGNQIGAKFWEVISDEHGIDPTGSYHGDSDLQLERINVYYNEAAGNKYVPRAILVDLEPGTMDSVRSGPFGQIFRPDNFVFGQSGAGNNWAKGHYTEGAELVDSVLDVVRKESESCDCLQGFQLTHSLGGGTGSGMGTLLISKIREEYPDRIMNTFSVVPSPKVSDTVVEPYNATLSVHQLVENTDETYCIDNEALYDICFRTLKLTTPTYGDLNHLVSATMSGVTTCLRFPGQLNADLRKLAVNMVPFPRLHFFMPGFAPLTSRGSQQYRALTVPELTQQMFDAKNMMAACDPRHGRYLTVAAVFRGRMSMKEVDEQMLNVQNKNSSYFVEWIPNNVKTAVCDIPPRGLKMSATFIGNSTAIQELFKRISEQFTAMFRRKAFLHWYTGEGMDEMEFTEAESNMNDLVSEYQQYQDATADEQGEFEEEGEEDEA
Assign pIC50 to each entry below.
Please report pIC50 as the negative decimal logarithm of the molar concentration, giving only the number.

Asked: Request - read-out pIC50 | tested on hKIF18A (1-374) (Homo sapiens (Human), UniProt Q8NI77) | molecule `CCC(CC)NS(=O)(=O)c1cccc(C(=O)N2CC3(CCC4(CC4)CC3)c3cc(NS(C)(=O)=O)ccc32)c1`
Given back: 7.59

Asked: Also need CC(C)(C)[C@@H](O)c1ccc(C(=O)N2CC3(CCC4(CC4)CC3)c3cc(NS(C)(=O)=O)ccc32)o1 (single isomer, unassigned) [Compound 373a] , thanks.
Given back: 6.70

Asked: Also need `CC(C)(C)NS(=O)(=O)c1ccc(C(=O)N2CC3(CCCCC3)c3cc(NS(C)(=O)=O)ccc32)o1` , thanks.
Given back: 7.11

Asked: Also need `CC(C)(C)NS(=O)(=O)c1cccc(C(=O)N2CC3(CCC4(CC4)CC3)c3cc(NS(C)(=O)=O)ccc32)c1` , thanks.
Given back: 7.96

Asked: Also need CC(C)(C)NS(=O)(=O)c1cccc(C(=O)N2C[C@]3(CC[C@H](C(F)(F)F)CC3)c3cc(NS(C)(=O)=O)ccc32)c1 [Compound 361a] , thanks.
Given back: 7.82

Asked: Also need `CS(=O)(=O)Nc1ccc2c(c1)C1(CCC3(CC3)CC1)CN2C(=O)c1cccc(S(=O)(=O)N2CC(F)(F)C2)c1` , thanks.
Given back: 8.08

Asked: Also need `CC(C)(C)NS(=O)(=O)c1cccc(C(=O)N2CC3(CCC4(CC4)CC3)c3cc(NS(=O)(=O)CCO)ccc32)c1` , thanks.
Given back: 7.92

Asked: Also need CS(=O)(=O)Nc1ccc2c(c1)C1(CCCCC1)CN2C(=O)c1cccc(S(=O)(=O)N2CCC(F)C2)c1 (centres unmarked) , thanks.
Given back: 6.89

Asked: Also need CC(C)(C)NS(=O)(=O)c1cccc(C(=O)N2CC3(CCC4(CC4)CC3)c3cc(C(O)C(F)(F)F)ccc32)c1 (single isomer, unassigned) [Compound 338a] , thanks.
Given back: 7.32

Asked: Also need `O=C(Nc1cccc(C(=O)N2CC3(CCCC3)c3c(F)cccc32)c1)NC1CC1` , thanks.
Given back: 6.04

Asked: Also need CC(O)(c1cccc(C(=O)N2CC3(CCC4(CC4)CC3)c3cc(NS(C)(=O)=O)ccc32)c1)C1CCCC1 (centres unmarked) , thanks.
Given back: 7.46

Asked: Also need `CC1(NS(=O)(=O)c2cccc(C(=O)N3CC4(CCC5(CC5)CC4)c4cc(NS(C)(=O)=O)ccc43)c2)COC1` , thanks.
Given back: 7.57

Asked: Also need `CS(=O)(=O)Nc1ccc2c(c1)C1(CCCCC1)CN2C(=O)c1csc(S(=O)(=O)NC2CCC2)c1` , thanks.
Given back: 7.59

Asked: Also need CS(=O)(=O)Nc1ccc2c(c1)[C@]1(CC[C@H](C(F)F)CC1)CN2C(=O)c1cccc(S(=O)(=O)NC23CC(C2)C3)c1 [Compound 336b] , thanks.
Given back: 7.77

Asked: Also need CC(C)(C)NS(=O)(=O)c1cccc(C(=O)N2C[C@]3(CC[C@H](C(F)F)CC3)c3cc(NS(C)(=O)=O)ccc32)c1 [Compound 162a] , thanks.
Given back: 7.82

Asked: Also need CC1CCC2(C1)CN(C(=O)c1cccc(S(=O)(=O)N3CCC(F)(F)CC3)c1)c1ccc(NS(C)(=O)=O)cc12 (centres unmarked) , thanks.
Given back: 7.64

Asked: Also need `CC(C)(C)NS(=O)(=O)c1ccc(C(=O)N2CC3(CCC4(CC4)CC3)c3cc(NS(C)(=O)=O)ccc32)o1` , thanks.
Given back: 7.85

Asked: Also need CS(=O)(=O)Nc1ccc2c(c1)C1(CCC3(CC3)CC1)CN2C(=O)c1cccc([C@H](O)C2CC(F)(F)C2)c1 (single isomer, unassigned) [Compound 351a] , thanks.
Given back: 8.06

Asked: Also need `O=C(c1cccc(S(=O)(=O)N2CC3(CCC3)C2)c1)N1CC2(CCC3(CC3)CC2)c2cc(NS(=O)(=O)CCO)ccc21` , thanks.
Given back: 8.34

Asked: Also need `CS(=O)(=O)Nc1ccc2c(c1)C1(CCC3(CC3)CC1)CN2C(=O)c1cccc(CN2CCCO2)c1` , thanks.
Given back: 6.51

Asked: Also need CS(=O)(=O)Nc1ccc2c(c1)C1(CCC3(CC3)CC1)CN2C(=O)c1csc(C(O)C2CCCC2)c1 (centres unmarked) , thanks.
Given back: 7.68

Asked: Also need `CC1(NS(=O)(=O)c2cccc(C(=O)N3CC4(CCC5(CC5)CC4)c4cc(NS(C)(=O)=O)ccc43)c2)CSC1` , thanks.
Given back: 7.89

Asked: Also need `CS(=O)(=O)Nc1ccc2c(c1)C1(CCC3(CC3)CC1)CN2C(=O)c1cccc(CN2CCC(F)(F)CC2)n1` , thanks.
Given back: 7.70

Asked: Also need `CS(=O)(=O)Nc1ccc2c(c1)C1(CCC3(CC3)CC1)CN2C(=O)c1cccc(S(=O)(=O)NC2(C#N)CC2)c1` , thanks.
Given back: 7.46

Asked: Also need `O=C(c1cccc(S(=O)(=O)NC2CC(F)(F)C2)c1)N1CC2(CCC3(CC3)CC2)c2cc(NS(=O)(=O)CCO)ccc21` , thanks.
Given back: 7.85

Asked: Also need `CS(=O)(=O)Nc1ccc2c(c1)C1(CCCCC1)CN2C(=O)c1cccc(SC2CCCC2)c1` , thanks.
Given back: 6.72

###

Assign log10(IC50) to each entry below.
target: hKIF18A (1-374) (Homo sapiens (Human)); assay: Inhibition of KIF18A microtubule-dependent ATPase activity (ADP-Glo); conditions: KIF18A microtubule-dependent ATPase activity, biochemical assay
Log scale reminder: IC50 in nM, then log10 taken.

Asked: I have this compound here, CC(C)(C)NS(=O)(=O)c1cccc(C(=O)N2C[C@]3(CC[C@@H](C(F)(F)F)CC3)c3cc(NS(C)(=O)=O)ccc32)c1 [Compound 361b] , and I need its recorded log10(IC50).
Given back: 2.00

Asked: Also need `CS(=O)(=O)Nc1ccc2c(c1)C1(CCC3(CC3)CC1)CN2C(=O)c1csc(S(=O)(=O)N2CC3(CCO3)C2)c1` , thanks.
Given back: 1.26

Asked: Also need `CC1(O)CN(S(=O)(=O)c2cccc(C(=O)N3CC4(CCC5(CC5)CC4)c4cc(NS(C)(=O)=O)ccc43)c2)C1` , thanks.
Given back: 1.80

Asked: Also need `CN(C)S(=O)(=O)c1cccc(C(=O)N2CC3(CCCCC3)c3cc(NS(C)(=O)=O)ccc32)c1` , thanks.
Given back: 3.11

Asked: Also need `CCS(=O)(=O)Nc1ccc2c(c1)C1(CCC3(CC3)CC1)CN2C(=O)c1cc(S(=O)(=O)NC(C)(C)C)cs1` , thanks.
Given back: 1.90

Asked: Also need `CS(=O)(=O)Nc1ccc2c(c1)C1(CCC3(CC3)CC1)CN2C(=O)c1cccc(S(=O)(=O)N2CC3(CCO3)C2)c1` , thanks.
Given back: 1.26

Asked: Also need `CS(=O)(=O)Nc1ccc2c(c1)C1(CCC3(CC3)CC1)CN2C(=O)c1cccc(S(=O)(=O)NC2CC2)c1` , thanks.
Given back: 1.08

Asked: Also need `CS(=O)(=O)Nc1ccc2c(c1)C1(CCC3(CC3)CC1)CN2C(=O)c1csc(S(=O)(=O)C2CCCC2)c1` , thanks.
Given back: 1.08

Asked: Also need `CS(=O)(=O)Nc1ccc2c(c1)C1(CCC3(CC3)CC1)CN2C(=O)c1cccc(S(=O)(=O)NC2CCCC2)c1` , thanks.
Given back: 0.75

Asked: Also need CCC1=CCC2(CC1)CN(C(=O)c1cccc(S(=O)(=O)NC(C)(C)C)c1)c1ccc(NS(C)(=O)=O)cc12 (centres unmarked) , thanks.
Given back: 1.59

Asked: Also need `CCS(=O)(=O)Nc1ccc2c(c1)C1(CCC3(CC3)CC1)CN2C(=O)c1cccc(S(=O)(=O)NC(C)(C)C)c1` , thanks.
Given back: 1.20

Asked: Also need CN=S(=O)(c1cccc(C(=O)N2CC3(CCCCC3)c3cc(NS(C)(=O)=O)ccc32)c1)C1CCCC1 (centres unmarked) , thanks.
Given back: 2.66

Asked: Also need `O=C(c1cccc(S(=O)(=O)N2CCCC2)c1)N1CC2(CCC3(CC3)CC2)c2ccccc21` , thanks.
Given back: 2.97

Asked: Also need CCS(=O)(=O)Nc1ccc2c(c1)C1(CCC3(CC3)CC1)CN2C(=O)c1ccc([C@@H](O)C(C)(C)C)o1 (single isomer, unassigned) [Compound 372b] , thanks.
Given back: 1.54

###

molecular target: KIF18a-Microtubule Complex (Homo sapiens (Human)); test: Binding kinetics to KIF18a-microtubule complex (global progress curve analysis); conditions: ln(2)/koff
Sequence (Q8NI77 whole entry, looked up): as the sequence (Q8NI77 whole entry, looked up) above
Sequence (Q2XVP4 whole entry partner, looked up): as the sequence (Q2XVP4 whole entry partner, looked up) above
Sequence (P02554 whole entry partner, looked up): as the sequence (P02554 whole entry partner, looked up) above
Assign disc. t1/2 (dissociation half-life ln(2)/koff) to each entry below.
The figure you give is taken to be in h; do not add the unit.

Asked: I have this compound here, CS(=O)(=O)Nc1ccc2c(c1)C1(CCC3(CC3)CC1)CN2C(=O)c1cccc(C(O)C2CCCC2)c1 (single isomer, unassigned) [Compound 165b] , and I need its recorded disc. t1/2 (dissociation half-life ln(2)/koff).
Given back: 4.2

Asked: Also need `COc1ccc(C(=O)N2CC3(CCC4(CC4)CC3)c3cc(NS(C)(=O)=O)ccc32)cc1S(=O)(=O)NC(C)(C)C` , thanks.
Given back: 49

Asked: Also need CC(C)(C)NS(=O)(=O)c1cccc(C(=O)N2C[C@]3(CC[C@H](C(F)F)CC3)c3cc(NS(C)(=O)=O)ccc32)c1 [Compound 162a] , thanks.
Given back: 13

Asked: Also need CS(=O)(=O)Nc1ccc2c(c1)C1(CCC3(CC3)CC1)CN2C(=O)c1cccc([C@@H](O)CC2CCC2)c1 (single isomer, unassigned) [Compound 305a] , thanks.
Given back: 0.56
